tested on: MCF7 breast; assay: NCI-60 one-dose screen, 48 h; conditions: 10 µM unless noted
The panel holds about 83,000 compounds, 20% with a hit somewhere; the sample as a whole holds those more often. Activity calls are given as the source filed them. Rule for the calls: active = growth percent below 10; inactive = the rest.
Outcome codes: T = active, F = inactive

[[record]]
smiles_str = "c1ccc(-c2nc(N3CCCNCC3)c3nc(-c4ccccc4)oc3n2)cc1"
assigned_class = "T"

[[record]]
smiles_str = "O=C(Nc1ccc(Cl)c(C(F)(F)F)c1)Nc1ccc(-c2cccnc2)cc1N1CCC(CO)CC1"
assigned_class = "F"

[[record]]
smiles_str = "CNC(=O)c1cc(Oc2cccc3nc(NC(=O)Nc4cc(C(F)(F)F)cc(C(F)(F)F)c4)ccc23)ccn1"
assigned_class = "F"

[[record]]
smiles_str = "CC(C)=CC/C=C(/C)[C@H]1CC[C@]2(C)[C@@H]1CC[C@@H]1[C@@]3(C)CC/C(=N/O)C(C)(C)[C@@H]3CC[C@]12C"
assigned_class = "F"


---

tested on: SK-MEL-2 melanoma; assay: NCI-60 one-dose screen, 48 h; details: 10 µM unless noted
The panel holds about 83,000 compounds, 20% with a hit somewhere; the sample as a whole holds those more often. Active and inactive are the calls of the source. How the source made its calls: active means growth percent below 10; inactive means the rest.
Outcomes: True = active, False = inactive

[[record]]
molecule = "COc1ccc2c(c1)C(C)Cc1c(ncnc1-n1cnc3ccccc31)N2C (stereo not drawn)"
assigned_class = "False"

[[record]]
molecule = "CCNc1cc2c(cc1Br)-c1ccccc1C2=O"
assigned_class = "False"

[[record]]
molecule = "Cc1ccc(NC(=O)N[C@@H](Cc2cc(F)cc(F)c2)C(=O)N[C@@H]2C(=O)N3CCC[C@H]3C(=O)N3CCOC[C@H]3C(=O)N[C@@H](C)C(=O)N3C[C@H](C)C[C@H]3C(=O)O[C@H]2C)cc1"
assigned_class = "False"

[[record]]
molecule = "C=C1C(=O)O[C@H]2[C@H]1CC/C(COC(=O)NCc1ccc(Cn3c(=O)sn(-c4ccc(Cl)cc4)c3=O)cc1)=C\\CC[C@@]1(C)O[C@@H]21"
assigned_class = "False"

[[record]]
molecule = "CCOC(=O)c1nn(C2CCCCO2)c2ccc(NC(=O)CN3CCOCC3)cc12 (stereo not drawn)"
assigned_class = "False"

[[record]]
molecule = "Cc1ccc(S(=O)(=O)Oc2ccc([N+](=O)[O-])cc2[N+](=O)[O-])cc1"
assigned_class = "False"

[[record]]
molecule = "CSc1nc2c(c(=O)n1C)C1(C(=O)N(Cc3ccccc3)c3ccccc31)c1c(nc(SC)n(C)c1=O)N2"
assigned_class = "False"

[[record]]
molecule = "O=C(Nc1ccccc1)Nc1ccc(C(=O)/C=C/c2ccc(N3CCCC3)cc2)cc1"
assigned_class = "False"

[[record]]
molecule = "O=C(Nc1ccc(Nc2ccncc2)cc1)c1ccc([N+](=O)[O-])cc1"
assigned_class = "False"

[[record]]
molecule = "O=C(N/N=C/c1ccc([N+](=O)[O-])cc1)c1ccc(Br)o1"
assigned_class = "False"

[[record]]
molecule = "CC1Cc2c(Cl)ncnc2N(C)c2ccccc21 (stereo not drawn)"
assigned_class = "True"

[[record]]
molecule = "COc1ccc2nc3cc(Cl)ccc3c(Nc3ccc(O)c(CN4CCCC4)c3)c2c1"
assigned_class = "True"

[[record]]
molecule = "C#C[C@]1(O)CC[C@H]2[C@@H]3CC=C4c5nc(Nc6ccccn6)sc5CC[C@]4(C)[C@H]3CC[C@@]21C"
assigned_class = "True"

[[record]]
molecule = "O=C(NNc1ccc(-c2ccccc2)nn1)c1ccccc1"
assigned_class = "False"

[[record]]
molecule = "CSc1nc(N)c(N=Nc2ccc(S(=O)(=O)Nc3nnc(C)s3)cc2)c(=O)[nH]1"
assigned_class = "False"

[[record]]
molecule = "NC(=O)CC1C=CCC1 (stereo not drawn)"
assigned_class = "False"

[[record]]
molecule = "O=C(CCN1CCCCC1)c1ccc2ccccc2c1"
assigned_class = "False"

[[record]]
molecule = "CC(=O)OC[C@]12CC[C@@H](C(=O)CBr)[C@@H]1[C@H]1CC[C@@H]3[C@@]4(C)CCCNC(C)(C)[C@@H]4CC[C@@]3(C)[C@]1(C)CC2"
assigned_class = "True"

[[record]]
molecule = "CCNC(=O)N1CCc2c(Cl)c3c(c(OC)c2[C@@H]1[C@H]1OCc2c1ccc(OC)c2OC)OCCO3"
assigned_class = "False"

[[record]]
molecule = "C=C(C)[C@@H]1CC[C@]2(C(=O)NCCCCCCN(CCCN)CCCN)CC[C@]3(C)[C@H](CC[C@@H]4[C@@]5(C)CC[C@H](OCCCN)C(C)(C)[C@@H]5CC[C@]43C)[C@@H]12"
assigned_class = "False"

[[record]]
molecule = "Cc1cc(C)c(S(=O)(=O)/N=c2/n(-c3ccccc3)nc3n2CCN3C2=NCCN2)c(C)c1"
assigned_class = "False"

[[record]]
molecule = "O=C(CCCSc1nc(-c2ccccc2)cc(-c2ccccc2)n1)NO"
assigned_class = "True"

[[record]]
molecule = "CCOC(=O)c1c[nH]c2cc(OCC3CC3)c(OCC3CC3)cc2c1=O"
assigned_class = "False"

[[record]]
molecule = "COc1ccc(C=C2c3ccccc3-c3ccccc32)cc1"
assigned_class = "False"

[[record]]
molecule = "Cc1cnc(N)nc1OCC(C)(C)CNC(=O)c1cccc(-c2ccc(S(=O)(=O)Nc3ccc4c(c3)N(C(=O)C3CC3)CCC4)cc2)c1"
assigned_class = "False"

[[record]]
molecule = "CCOC(=O)c1sc2nc(-c3cc(OC)c(OC)c(OC)c3)nc(N3CCOCC3)c2c1C"
assigned_class = "False"

[[record]]
molecule = "CC(C)CCNCC(C)(C)O"
assigned_class = "False"

[[record]]
molecule = "O=C(Nc1cccnc1)c1ccc2ccc3ccc(C(=O)Nc4cccnc4)nc3c2n1"
assigned_class = "False"

[[record]]
molecule = "O=C1CC(c2ccc3c(c2)OCO3)Nc2ccccc21 (stereo not drawn)"
assigned_class = "False"

[[record]]
molecule = "O=C(CSc1nccc(Nc2ccc(S(=O)(=O)Nc3ccccn3)cc2)n1)c1ccc(Cl)cc1"
assigned_class = "False"

[[record]]
molecule = "Cn1cc(-c2nnc(-c3cn(C)c4ncc(Br)cc34)s2)c2cc(Br)ccc21"
assigned_class = "False"

[[record]]
molecule = "CCOC(=O)C1=C(C(=O)c2ccc(Br)cc2)C(c2ccc(Br)cc2)NC(=S)N1 (stereo not drawn)"
assigned_class = "False"

[[record]]
molecule = "COc1ccc(C(=O)/C=C/c2ccccn2)c(O)c1"
assigned_class = "False"

[[record]]
molecule = "Cc1nn(-c2ccccc2)c(N2CCOCC2)c1-c1nc2ccc([N+](=O)[O-])cc2[nH]1"
assigned_class = "False"

[[record]]
molecule = "O=c1[nH]cnc2c1ccn2C1OC(CO)C(O)C1O (stereo not drawn)"
assigned_class = "False"

[[record]]
molecule = "N#CC1C(=O)NC(c2ccccc2[N+](=O)[O-])c2sc3c(F)cccc3c21 (stereo not drawn)"
assigned_class = "False"

[[record]]
molecule = "COc1cc(C(=O)/C=C/c2c(-c3ccc(F)cc3)nc3sccn23)cc(OC)c1OC"
assigned_class = "False"

[[record]]
molecule = "CC1(C)NCCC[C@]2(C)[C@H]3C=CC4=C5C[C@](C)(CO)CC[C@]5(C)CC[C@@]4(C)[C@]3(C)CC[C@@H]12"
assigned_class = "True"

